System: soybean (Glycine max L., var. Pella 86, SOY)
Test: Post-emerge greenhouse test, crop damage rating
Assay type: in vivo
Conditions: 500 g al/ha, 14 days after application
MEASURED ENDPOINT: SOY crop damage rating (0-100)
// return a plain number; no unit text

Cn1nc(-c2cc(Oc3ncccc3C(F)(F)F)c(Cl)cc2F)c(Cl)c1C(F)(F)F ... 50
O=c1n(CCCF)nnn1-c1cc(Oc2ncc(Br)cn2)c(Cl)cc1F ... 60
Cn1nc(-c2cc(Oc3nc(F)c(F)cc3F)c(Cl)cc2F)c(Cl)c1C(F)(F)F ... 50

# next compound below
Please fill in: SOY crop damage rating (0-100) reported for `CS(=O)(=O)Nc1ccc(Oc2cc(-n3c(=O)cc4n(c3=O)CCC4)c(F)cc2Cl)cc1` = 0

* * *

Test system: barnyardgrass (Echinochloa crusgalli, ECHCG)
Test: Post-emerge greenhouse herbicide test, phytotoxicity rating
Format: in vivo
Settings: rate 63 g ai/ha, 14 days after application, scale 0-100
# phytotoxicity rating ECHCG annotations
// return a plain number; no unit text

Illustrative cases are given below, each with its answer.
O=c1n(-c2cc(Oc3ccccn3)c(Cl)cc2F)c(=S)n2n1CCCC2 ... 90
CSc1cccnc1Oc1cc(-n2c(=O)n3n(c2=S)CCCC3)c(F)cc1Cl ... 20
COc1cc(OC)nc(Oc2cc(-n3c(=O)n4n(c3=S)CCCC4)c(F)cc2Cl)n1 ... 20
O=c1n(-c2cc(Oc3cccc(F)n3)c(Cl)cc2F)c(=S)n2n1CCCC2 ... 20
O=c1n(-c2cc(Oc3ccc([N+](=O)[O-])cn3)c(Cl)cc2F)c(=S)n2n1CCCC2 ... 0
O=c1n(-c2cc(Oc3nccc(C(F)(F)F)n3)c(Cl)cc2F)c(=S)n2n1CCCC2 ... 10
CC(C)S(=O)(=O)c1cccnc1Oc1cc(-n2c(=O)n3n(c2=S)CCCC3)c(F)cc1Cl ... 0

# next compound below
Please fill in: phytotoxicity rating ECHCG reported for `N#Cc1ccc(Oc2cc(-n3c(=O)n4n(c3=S)CCCC4)c(F)cc2Cl)nc1` = 10

* * *

Test system: ivyleaf morningglory (Ipomoea hederacea, IPOHE)
Assay: Post-emerge greenhouse herbicide test, phytotoxicity rating
Format: in vivo
Settings: rate 63 g ai/ha, 14 days after application, scale 0-100
MEASURED ENDPOINT: phytotoxicity rating IPOHE
// return a plain number; no unit text

O=c1n(-c2cc(Oc3ccc([N+](=O)[O-])cn3)c(Cl)cc2F)c(=S)n2n1CCCC2 [Compound 8-23] ... 50
Nn1c(C(F)(F)F)cc(=O)n(-c2cc(Oc3cccc(C(F)(F)F)c3)c(Cl)cc2F)c1=O [Compound 9-25] ... 100
N#Cc1cccnc1Oc1cc(-n2c(=O)n3n(c2=S)CCCC3)c(F)cc1Cl [Compound 8-20] ... 100
CCOC(=O)C(C)Oc1ccc(Oc2cc(-n3c(=O)n4n(c3=S)CCCC4)c(F)cc2Cl)c(N)c1 (stereo not shown) [Compound 8-40] ... 40
CCOC(=O)C(C)Oc1ccc(Oc2cc(-n3c(=O)n4n(c3=O)CCCC4)c(F)cc2Cl)c([N+](=O)[O-])c1 (stereo not shown) [Compound 8-41] ... 30

Please fill in: phytotoxicity rating IPOHE reported for CCOC(=O)C(C)Oc1cc([N+](=O)[O-])c(Oc2cc(-n3c(=O)n4n(c3=S)CCCC4)c(F)cc2Cl)cc1Cl (stereo not shown) [Compound 8-38] = 40

Please fill in: phytotoxicity rating IPOHE reported for O=c1n(-c2cc(Oc3ccccn3)c(Cl)cc2F)c(=S)n2n1CCCC2 [Compound 8-17] = 100

* * *

Tested on: upland rice (Oryza sp., var.Tebonnet, RICE)
Experiment: Post-emerge greenhouse test, crop damage rating
Format: in vivo
Conditions: 63 g al/ha, 14 days after application
MEASURED ENDPOINT: RICE crop damage rating (0-100)

N#Cc1cc([N+](=O)[O-])ccc1Oc1cc(-n2c(=O)n3n(c2=S)CCCC3)c(F)cc1Cl ... 0
N#Cc1ccccc1Oc1cc(-n2c(=O)n3n(c2=S)CCCC3)c(F)cc1Cl ... 10
O=c1n(CCCF)nnn1-c1cc(Oc2ncccc2C(F)(F)F)c(Cl)cc1Cl ... 0
N#Cc1cccnc1Oc1cc(-n2nnn(CCCF)c2=O)c(Cl)cc1Cl ... 20

# next compound below
Please fill in: RICE crop damage rating (0-100) reported for `Nc1ccc(Oc2cc(-n3c(=O)n4n(c3=S)CCCC4)c(F)cc2Cl)c(C(F)(F)F)c1` = 0

* * *

# RICE crop damage rating annotations
System: upland rice (Oryza sp., var.Tebonnet, RICE)
Experiment: Pre-emerge greenhouse test, crop damage rating
Format: in vivo
Details: Rate 125 g al/ha, 14 days after application, rating scale 0-100
// return a plain number; no unit text

Illustrative cases are given below, each with its answer.
COc1nc(OC)nc(Oc2cc(-n3c(=O)n4n(c3=S)CCCC4)c(F)cc2Cl)n1 ... 20
CSc1cccnc1Oc1cc(-n2c(=O)n3n(c2=S)CCCC3)c(F)cc1Cl ... 20
N#Cc1ccc(Oc2cc(-n3c(=O)n4n(c3=S)CCCC4)c(F)cc2Cl)nc1 ... 0
O=c1n(-c2cc(Oc3nc(F)c(F)cc3F)c(Cl)cc2F)c(=S)n2n1CCCC2 ... 25

Please fill in: RICE crop damage rating reported for `O=c1n(-c2cc(Oc3cccc(F)n3)c(Cl)cc2F)c(=S)n2n1CCCC2` = 15

Please fill in: RICE crop damage rating reported for `CS(=O)(=O)c1cccnc1Oc1cc(-n2c(=O)n3n(c2=S)CCCC3)c(F)cc1Cl` = 40

Please fill in: RICE crop damage rating reported for `O=c1n(-c2cc(Oc3nc(Cl)ccc3C(F)(F)F)c(Cl)cc2F)c(=S)n2n1CCCC2` = 0

* * *

Tested on: large crabgrass (Digitaria sanguinalis, DIGSA)
Assay: Post-emerge greenhouse herbicide test, phytotoxicity rating
Type: in vivo
Conditions: rate 63 g ai/ha, 14 days after application, scale 0-100
Method: A standard greenhouse herbicide activity screening system was used to evaluate the herbicidal efficacy and crop safety of these test compounds. […] At 14 days after application of the test materials, phytotoxicity ratings were recorded. […]
MEASURED ENDPOINT: phytotoxicity rating DIGSA
// return a plain number; no unit text

Illustrative cases are given below, each with its answer.
O=c1n(-c2cc(Oc3cccc(F)n3)c(Cl)cc2F)c(=S)n2n1CCCC2 [Compound 8-25] ... 10
O=c1n(-c2cc(Oc3nc(Cl)ccc3C(F)(F)F)c(Cl)cc2F)c(=S)n2n1CCCC2 [Compound 8-27] ... 10
Nc1cccnc1Oc1cc(-n2c(=O)n3n(c2=S)CCCC3)c(F)cc1Cl [Compound 8-42] ... 0
Cc1nsc(Oc2cc(-n3c(=O)n4n(c3=S)CCCC4)c(F)cc2Cl)c1[N+](=O)[O-] [Compound 8-35] ... 0
COc1cc(Oc2cc(-n3c(=O)n4n(c3=S)CCCC4)c(F)cc2Cl)nc(OC)n1 [Compound 8-32] ... 0

Please fill in: phytotoxicity rating DIGSA reported for COc1cc(OC)nc(Oc2cc(-n3c(=O)n4n(c3=S)CCCC4)c(F)cc2Cl)n1 [Compound 8-33] = 0

Please fill in: phytotoxicity rating DIGSA reported for Nn1c(C(F)(F)F)cc(=O)n(-c2cc(Oc3cccc(C(F)(F)F)c3)c(Cl)cc2F)c1=O [Compound 9-25] = 0

Please fill in: phytotoxicity rating DIGSA reported for O=c1n(-c2cc(Oc3ccc([N+](=O)[O-])cn3)c(Cl)cc2F)c(=S)n2n1CCCC2 [Compound 8-23] = 0

Please fill in: phytotoxicity rating DIGSA reported for O=c1n(-c2cc(Oc3ccccn3)c(Cl)cc2F)c(=S)n2n1CCCC2 [Compound 8-17] = 50

Please fill in: phytotoxicity rating DIGSA reported for CC(C)S(=O)(=O)c1cccnc1Oc1cc(-n2c(=O)n3n(c2=S)CCCC3)c(F)cc1Cl [Compound 8-37] = 0

* * *

Test system: green foxtail (Setaria viridis, SETVI)
Test: Pre-emerge greenhouse herbicide test, phytotoxicity rating
Assay type: in vivo
Settings: Rate 125 g al/ha, 14 days after application, rating scale 0-100
# SETVI phytotoxicity rating annotations
// return a plain number; no unit text

Illustrative cases are given below, each with its answer.
Nn1c(C(F)(F)F)cc(=O)n(-c2cc(Oc3cccc(C(F)(F)F)c3)c(Cl)cc2F)c1=O ... 100
Nc1cccnc1Oc1cc(-n2c(=O)n3n(c2=S)CCCC3)c(F)cc1Cl ... 0
COc1cc(Oc2cc(-n3c(=O)n4n(c3=S)CCCC4)c(F)cc2Cl)nc(OC)n1 ... 10
CC(C)S(=O)(=O)c1cccnc1Oc1cc(-n2c(=O)n3n(c2=S)CCCC3)c(F)cc1Cl ... 100
CCOC(=O)C(C)Oc1ccc(Oc2cc(-n3c(=O)n4n(c3=S)CCCC4)c(F)cc2Cl)c(N)c1 (stereo not shown) ... 0

# next compound below
Please fill in: SETVI phytotoxicity rating reported for `O=c1n(-c2cc(Oc3ncccc3[N+](=O)[O-])c(Cl)cc2F)c(=S)n2n1CCCC2` = 100
